Reference for the values: patent US20250066745A1

- METHOD_DESCRIPTION: Luminescence activity assay of purified Gaussia luciferase mutants on fluoro-coelenterazine
- Format: biochemical
- Design: key: ratio of mutant luminescence intensity to wild-type Gaussia luciferase
- CONDITION_DETAILS: Substrate f-CTZ (Table 16)
Property: Activity of mutant relative to wild-type Gaussia luciferase without the signal peptide; scope: individual molecules
No unit in the answer, please; the number alone is enough.

Below, each entry is followed by its recorded Activity of mutant relative to wild-type Gaussia luciferase without the signal peptide result.
>  <MOLECULE>
Q152H Q163T T167G S170D G174N A182M G183A: Gaussia luciferase mutant (protein, SIGNAL (1)..(17), Gaussia luciferase mutant) MGVKVLFALICIAVAEAKPTENNEDFNIVAVASNFATTDLDADRGKLPGKKLPLEVLKEMEANARKAGCTRGCLICLSHIKCTPKMKKFIPGRCHTYEGDKESAQGGIGEAIVDIPEIPGFKDLEPMEQFIAQVDLCVDCTTGCLKGLANVHCSDLLKKWLPTRCAGFADKIQNQVDKIKGMAGD

>  <QUANTITATIVE_RESULT>
0.478

$$$$
>  <MOLECULE>
P84A E102A S103I E110P D123N: Gaussia luciferase mutant (protein, SIGNAL (1)..(17), Gaussia luciferase mutant) MGVKVLFALICIAVAEAKPTENNEDFNIVAVASNFATTDLDADRGKLPGKKLPLEVLKEMEANARKAGCTRGCLICLSHIKCTAKMKKFIPGRCHTYEGDKAIAQGGIGPAIVDIPEIPGFKNLEPMEQFIAQVDLCVDCTTGCLKGLANVQCSDLLKKWLPQRCATFASKIQGQVDKIKGAGGD

>  <QUANTITATIVE_RESULT>
1.802

$$$$
>  <MOLECULE>
A42G Q152C T167G S170T G174N K178S A182Y G183A: Gaussia luciferase mutant (protein, SIGNAL (1)..(17), Gaussia luciferase mutant) MGVKVLFALICIAVAEAKPTENNEDFNIVAVASNFATTDLDGDRGKLPGKKLPLEVLKEMEANARKAGCTRGCLICLSHIKCTPKMKKFIPGRCHTYEGDKESAQGGIGEAIVDIPEIPGFKDLEPMEQFIAQVDLCVDCTTGCLKGLANVCCSDLLKKWLPQRCAGFATKIQNQVDSIKGYAGD

>  <QUANTITATIVE_RESULT>
0.520

$$$$
>  <MOLECULE>
Q152R Q163S T167S S170D G174K Q175E K178N A182M: Gaussia luciferase mutant (protein, SIGNAL (1)..(17), Gaussia luciferase mutant) MGVKVLFALICIAVAEAKPTENNEDFNIVAVASNFATTDLDADRGKLPGKKLPLEVLKEMEANARKAGCTRGCLICLSHIKCTPKMKKFIPGRCHTYEGDKESAQGGIGEAIVDIPEIPGFKDLEPMEQFIAQVDLCVDCTTGCLKGLANVRCSDLLKKWLPSRCASFADKIQKEVDNIKGMGGD

>  <QUANTITATIVE_RESULT>
1.020

$$$$

## Task Please give measured Activity of mutant relative to wild-type Gaussia luciferase without the signal peptide of the following entry: N27D V29Y A30G V31L A32V S33K A36D L40V: Gaussia luciferase mutant (protein, SIGNAL (1)..(17), Gaussia luciferase mutant) MGVKVLFALICIAVAEAKPTENNEDFDIYGLVKNFDTTDVDADRGKLPGKKLPLEVLKEMEANARKAGCTRGCLICLSHIKCTPKMKKFIPGRCHTYEGDKESAQGGIGEAIVDIPEIPGFKDLEPMEQFIAQVDLCVDCTTGCLKGLANVQCSDLLKKWLPQRCATFASKIQGQVDKIKGAGGD
## Result 0.155

## Task Output measured Activity of mutant relative to wild-type Gaussia luciferase without the signal peptide for this item: A42G Q152H T167G S170T G174N K178S A182Y G183A: Gaussia luciferase mutant (protein, SIGNAL (1)..(17), Gaussia luciferase mutant) MGVKVLFALICIAVAEAKPTENNEDFNIVAVASNFATTDLDGDRGKLPGKKLPLEVLKEMEANARKAGCTRGCLICLSHIKCTPKMKKFIPGRCHTYEGDKESAQGGIGEAIVDIPEIPGFKDLEPMEQFIAQVDLCVDCTTGCLKGLANVHCSDLLKKWLPQRCAGFATKIQNQVDSIKGYAGD
## Result 0.657

## Task Provide Activity of mutant relative to wild-type Gaussia luciferase without the signal peptide value for the following molecule: F26R N27D V29D A30G A32D S33N T37A L40P: Gaussia luciferase mutant (protein, SIGNAL (1)..(17), Gaussia luciferase mutant) MGVKVLFALICIAVAEAKPTENNEDRDIDGVDNNFAATDPDADRGKLPGKKLPLEVLKEMEANARKAGCTRGCLICLSHIKCTPKMKKFIPGRCHTYEGDKESAQGGIGEAIVDIPEIPGFKDLEPMEQFIAQVDLCVDCTTGCLKGLANVQCSDLLKKWLPQRCATFASKIQGQVDKIKGAGGD
## Result 0.049

## Task Dear colleague, please send me the reported Activity of mutant relative to wild-type Gaussia luciferase without the signal peptide for Q152H Q163T T167G S170N Q175E A182L G183A: Gaussia luciferase mutant (protein, SIGNAL (1)..(17), Gaussia luciferase mutant) MGVKVLFALICIAVAEAKPTENNEDFNIVAVASNFATTDLDADRGKLPGKKLPLEVLKEMEANARKAGCTRGCLICLSHIKCTPKMKKFIPGRCHTYEGDKESAQGGIGEAIVDIPEIPGFKDLEPMEQFIAQVDLCVDCTTGCLKGLANVHCSDLLKKWLPTRCAGFANKIQGEVDKIKGLAGD when you can.
## Result 0.172

## Task Provide only the value of recorded Activity of mutant relative to wild-type Gaussia luciferase without the signal peptide for Q152R Q163S T167G S170T G174K K178S A182M G183A: Gaussia luciferase mutant (protein, SIGNAL (1)..(17), Gaussia luciferase mutant) MGVKVLFALICIAVAEAKPTENNEDFNIVAVASNFATTDLDADRGKLPGKKLPLEVLKEMEANARKAGCTRGCLICLSHIKCTPKMKKFIPGRCHTYEGDKESAQGGIGEAIVDIPEIPGFKDLEPMEQFIAQVDLCVDCTTGCLKGLANVRCSDLLKKWLPSRCAGFATKIQKQVDSIKGMAGD
## Result 1.864
